These data points were gathered from PubChem BioAssay AID2060895.

# System: PDC 899932-113-R3-J6 complex spheroid viability
# measurement_protocol: Anticancer human tumor 899932-113-R3-J6-PDC patient-derived melanoma cell line growth inhibition [RAS]
# stated_conditions: compound 1 µM; active compounds read low
# From the text: RAS pathway inhibitors in Combinations in Complex Spheroids A high-throughput screen of multi-cell type tumor spheroids was designed to identify active combinations of RAS pathway inhibitors and targeted small molecules. Complex spheroids include a stromal component modeled by human endothelial cells (HUVEC) and fibroblasts modeled by human mesenchymal stem cells (MSCs). […] Compounds. […] If the clinical Cmax for an agent had not been determined, the highest concentration tested was 10 microM. […]
measurement_name: viability, T/C

Examples with their reported viability, T/C follow.
C#Cc1c(F)ccc2cc(O)cc(-c3ncc4c(N5CC6CCC(C5)N6)nc(OCC56CCCN5CC(F)C6)nc4c3F)c12 (centres undefined): 112% [middle of 8 runs]
CC(C)NCC(C(=O)N1CCN(c2ncnc3c2C(C)CC3O)CC1)c1ccc(Cl)cc1 (centres undefined): 84.7% [middle of 4 runs]
CC(Nc1ccc2c(c1)OCCn1cc(N3C(=O)OCC3C(F)F)nc1-2)C(N)=O (centres undefined): 58.4% [middle of 4 runs]

We now examine a further molecule.
Exercise: Which measured viability, T/C value corresponds to CC1(O)CCCC1n1c(=O)c(C(F)F)cc2cnc(NC3CCN(S(C)(=O)=O)CC3)nc21 (centres undefined) ?
Solution: 65.9% [middle of 4 runs]

###

# System: PDC 899932-113-R3-J6 complex spheroid viability
# measurement_protocol: Anticancer human tumor 899932-113-R3-J6-PDC cell line growth inhibition [RAS];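 note: spheroids exposed to agents for seven days before readout; 100% = DMSO vehicle control wells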
# stated_conditions: second compound 0.01 µM; first compound 0.316 µM; active compounds read low
measurement_name: viability, T/C (%)
Return type: number; implicit unit %.

Cc1nc(N2CCC3(CC2)COC(C)C3N)c(CO)nc1Sc1ccnc(N)c1Cl (stereo not drawn) + C=CC(=O)N1CCN(c2nc(OCC3CCCN3C)nc3c(F)c(-c4nc(N)cc(C)c4C(F)(F)F)c(Cl)cc23)C(C)C1: 113
CC(Nc1ccc2c(c1)OCCn1cc(N3C(=O)OCC3C(F)F)nc1-2)C(N)=O (stereo not drawn) + C=CC(=O)N1CCN(c2nc(OCC3CCCN3C)nc3c(F)c(-c4nc(N)cc(C)c4C(F)(F)F)c(Cl)cc23)C(C)C1: 65.6

We now examine a further compound.
Exercise: Which measured viability, T/C value corresponds to CC(C)NCC(C(=O)N1CCN(c2ncnc3c2C(C)CC3O)CC1)c1ccc(Cl)cc1 (stereo not drawn) + C=CC(=O)N1CCN(c2nc(OCC3CCCN3C)nc3c(F)c(-c4nc(N)cc(C)c4C(F)(F)F)c(Cl)cc23)C(C)C1 ?
Solution: 102

###

# System: PDC 899932-113-R3-J6 complex spheroid viability
# measurement_protocol: Anticancer human tumor 899932-113-R3-J6-PDC cell line growth inhibition [RAS];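 note: spheroids exposed to agents for seven days before readout; 100% = DMSO vehicle control wells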
# stated_conditions: second compound 0.316 µM; first compound 0.01 µM; active compounds read low
measurement_name: viability, T/C (%)
Return type: number; implicit unit %.

Examples with their reported viability, T/C follow.
CCN1CCN(Cc2ccc(Nc3ncc(F)c(-c4cc(F)c5nc(C)n(C(C)C)c5c4)n3)nc2)CC1 + C=CC(=O)N1CCN(c2nc(OCC3CCCN3C)nc3c(F)c(-c4nc(N)cc(C)c4C(F)(F)F)c(Cl)cc23)C(C)C1: 106
O=C(c1ccc(F)c(F)c1Nc1ccc(I)cc1F)N1CC(O)([C@@H]2CCCCN2)C1 + C=CC(=O)N1CCN(c2nc(OCC3CCCN3C)nc3c(F)c(-c4nc(N)cc(C)c4C(F)(F)F)c(Cl)cc23)C(C)C1: 43.9
CCN1CCN(Cc2ccc(Nc3ncc(F)c(-c4cc(F)c5nc(C)n(C(C)C)c5c4)n3)nc2)CC1 + C#Cc1c(F)ccc2cc(O)cc(-c3ncc4c(N5CC6CCC(C5)N6)nc(OCC56CCCN5CC(F)C6)nc4c3F)c12: 92.8
Nc1ccn(C2OC(CO)C(O)C2(F)F)c(=O)n1 (stereo unspecified) + C=CC(=O)N1CCN(c2nc(OCC3CCCN3C)nc3c(F)c(-c4nc(N)cc(C)c4C(F)(F)F)c(Cl)cc23)C(C)C1: 73
CC(C)n1nc(-c2ccc3oc(N)nc3c2)c2c(N)ncnc21 + C#Cc1c(F)ccc2cc(O)cc(-c3ncc4c(N5CC6CCC(C5)N6)nc(OCC56CCCN5CC(F)C6)nc4c3F)c12: 100

Exercise: Which measured viability, T/C value corresponds to C=CC(=O)N1CCN(c2nc(OCC3CCCN3C)nc3c(F)c(-c4nc(N)cc(C)c4C(F)(F)F)c(Cl)cc23)C(C)C1 (stereo unspecified) + C#Cc1c(F)ccc2cc(O)cc(-c3ncc4c(N5CC6CCC(C5)N6)nc(OCC56CCCN5CC(F)C6)nc4c3F)c12 ?
Solution: 115

Exercise: Which measured viability, T/C value corresponds to O=C(c1ccc(F)c(F)c1Nc1ccc(I)cc1F)N1CC(O)([C@@H]2CCCCN2)C1 + C#Cc1c(F)ccc2cc(O)cc(-c3ncc4c(N5CC6CCC(C5)N6)nc(OCC56CCCN5CC(F)C6)nc4c3F)c12 ?
Solution: 58.5

Exercise: Which measured viability, T/C value corresponds to C=CC(=O)Nc1cc(Nc2nccc(-c3cn(C)c4ccccc34)n2)c(OC)cc1N(C)CCN(C)C + C=CC(=O)N1CCN(c2nc(OCC3CCCN3C)nc3c(F)c(-c4nc(N)cc(C)c4C(F)(F)F)c(Cl)cc23)C(C)C1 ?
Solution: 103

###

# System: PDC 899932-113-R3-J6 complex spheroid viability
# measurement_protocol: Anticancer human tumor 899932-113-R3-J6-PDC cell line growth inhibition [RAS];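 note: spheroids exposed to agents for seven days before readout; 100% = DMSO vehicle control wells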
# stated_conditions: second compound 0.0949 µM; first compound 0.00949 µM; active compounds read low
# Source text: RAS pathway inhibitors in Combinations in Complex Spheroids A high-throughput screen of multi-cell type tumor spheroids was designed to identify active combinations of RAS pathway inhibitors and targeted small molecules. Complex spheroids include a stromal component modeled by human endothelial cells (HUVEC) and fibroblasts modeled by human mesenchymal stem cells (MSCs). […] Compounds. […] If the clinical Cmax for an agent had not been determined, the highest concentration tested was 10 microM. […]
measurement_name: viability, T/C (%)
Return type: number; implicit unit %.

Examples with their reported viability, T/C follow.
CCc1c2c(nc3ccc(O)cc13)-c1cc3c(c(=O)n1C2)COC(=O)[C@]3(O)CC + CCn1c(-c2cccnc2C(C)OC)c2c3cc(ccc31)N1CCOC(CC(NC(=O)C(C(C)C)N(C)C(=O)C3(F)CCN(C(=O)C#CC(C)(C)N(C)C)CC3)C(=O)N3CCCC(N3)C(=O)OCC(C)(C)C2)C1: 54.1
CC1(C)CCC(Nc2ncc(C(F)(F)F)c(-c3c[nH]c4c(P(C)(C)=O)c(C#N)ccc34)n2)CN1 (centres undefined) + CCn1c(-c2cccnc2C(C)OC)c2c3cc(ccc31)N1CCOC(CC(NC(=O)C(C(C)C)N(C)C(=O)C3(F)CCN(C(=O)C#CC(C)(C)N(C)C)CC3)C(=O)N3CCCC(N3)C(=O)OCC(C)(C)C2)C1: 59.8

Exercise: Which measured viability, T/C value corresponds to CCc1c2c(nc3ccc(O)cc13)-c1cc3c(c(=O)n1C2)COC(=O)[C@]3(O)CC + CCn1c(-c2cc(N3CCN(C)CC3)cnc2C(C)OC)c2c3cc(ccc31)-c1csc(n1)CC(NC(=O)C1CC1C)C(=O)N1CCCC(N1)C(=O)OCC(C)(C)C2 ?
Solution: 2.12

Exercise: Which measured viability, T/C value corresponds to CC1(C)CCC(Nc2ncc(C(F)(F)F)c(-c3c[nH]c4c(P(C)(C)=O)c(C#N)ccc34)n2)CN1 (centres undefined) + CCn1c(-c2cc(N3CCN(C)CC3)cnc2C(C)OC)c2c3cc(ccc31)-c1csc(n1)CC(NC(=O)C1CC1C)C(=O)N1CCCC(N1)C(=O)OCC(C)(C)C2 ?
Solution: 2.67

###

viability, T/C overview
# System: PDC 899932-113-R3-J6 complex spheroid viability
# measurement_protocol: Anticancer human tumor 899932-113-R3-J6-PDC cell line growth inhibition [RAS];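 note: spheroids exposed to agents for seven days before readout; 100% = DMSO vehicle control wells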
# stated_conditions: second compound 1 µM; first compound 0.000949 µM; active compounds read low
Return type: number; implicit unit %.

CC1(C)CCC(Nc2ncc(C(F)(F)F)c(-c3c[nH]c4c(P(C)(C)=O)c(C#N)ccc34)n2)CN1 (centres undefined) + C=CC(=O)N1CCN(c2nc(OCC3CCCN3C)nc3c(F)c(-c4nc(N)cc(C)c4C(F)(F)F)c(Cl)cc23)C(C)C1: 95.1
CC1(C)CCC(Nc2ncc(C(F)(F)F)c(-c3c[nH]c4c(P(C)(C)=O)c(C#N)ccc34)n2)CN1 (centres undefined) + C#Cc1c(F)ccc2cc(O)cc(-c3ncc4c(N5CC6CCC(C5)N6)nc(OCC56CCCN5CC(F)C6)nc4c3F)c12: 104
CCc1c2c(nc3ccc(O)cc13)-c1cc3c(c(=O)n1C2)COC(=O)[C@]3(O)CC + C=CC(=O)N1CCN(c2nc(OCC3CCCN3C)nc3c(F)c(-c4nc(N)cc(C)c4C(F)(F)F)c(Cl)cc23)C(C)C1: 96.5

Exercise: Write down the reported viability, T/C of CCc1c2c(nc3ccc(O)cc13)-c1cc3c(c(=O)n1C2)COC(=O)[C@]3(O)CC + C#Cc1c(F)ccc2cc(O)cc(-c3ncc4c(N5CC6CCC(C5)N6)nc(OCC56CCCN5CC(F)C6)nc4c3F)c12 , test system: PDC 899932-113-R3-J6 complex spheroid viability.
Solution: 91.7
